- assayed_system: T1, hCD112R mFC recombinant protein (human; murine, UniProt Q6DKI7 41-160)
- T1 construct: range 41-160; expressed in 293E cells; also called hCD112R ECD mFC; hCD112R-ECD-mFC; not shown: murine IgG2a Fc domain (MX2-mFc vector)
- T1 sequence (looked up): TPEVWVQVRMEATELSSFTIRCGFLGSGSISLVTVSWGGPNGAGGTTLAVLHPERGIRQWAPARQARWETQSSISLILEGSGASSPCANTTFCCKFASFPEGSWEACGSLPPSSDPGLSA
- run_description: ELISA, coated hCD112R-ECD-mFC
observable: EC50

- binder: "Hu49 (antibody, IgG4, V domains shown, humanized IgG4) VH: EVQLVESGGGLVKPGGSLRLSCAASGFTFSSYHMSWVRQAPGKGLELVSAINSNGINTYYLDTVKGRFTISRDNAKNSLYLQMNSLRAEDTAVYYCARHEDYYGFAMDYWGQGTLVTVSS VL: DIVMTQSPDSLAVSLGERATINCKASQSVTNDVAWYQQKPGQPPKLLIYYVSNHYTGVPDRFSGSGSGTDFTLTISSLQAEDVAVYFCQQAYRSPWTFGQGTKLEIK"
  result: "4.95 ng/mL"
- binder: "Hu13 (antibody, IgG4, V domains shown, humanized IgG4) VH: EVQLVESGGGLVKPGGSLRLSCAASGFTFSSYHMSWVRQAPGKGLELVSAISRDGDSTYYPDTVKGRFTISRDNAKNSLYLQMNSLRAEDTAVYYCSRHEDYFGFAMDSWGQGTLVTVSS VL: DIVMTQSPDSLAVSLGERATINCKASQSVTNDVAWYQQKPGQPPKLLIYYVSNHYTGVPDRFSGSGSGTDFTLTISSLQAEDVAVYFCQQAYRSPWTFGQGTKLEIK"
  result: "4.33 ng/mL"
- binder: "Hu54 (antibody, IgG4, V domains shown, humanized IgG4) VH: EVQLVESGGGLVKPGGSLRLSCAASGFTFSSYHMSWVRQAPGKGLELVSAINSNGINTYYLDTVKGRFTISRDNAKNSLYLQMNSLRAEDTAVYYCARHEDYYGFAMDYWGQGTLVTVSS VL: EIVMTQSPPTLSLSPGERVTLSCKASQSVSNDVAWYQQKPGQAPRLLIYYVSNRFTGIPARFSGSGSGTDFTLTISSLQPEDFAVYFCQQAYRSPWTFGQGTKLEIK"
  result: "6.31 ng/mL"
